tested system: human SLC6A19 and TMEM27 (Homo sapiens)
Construct: expressed in transfected cells
Sequence (Q695T7 whole entry): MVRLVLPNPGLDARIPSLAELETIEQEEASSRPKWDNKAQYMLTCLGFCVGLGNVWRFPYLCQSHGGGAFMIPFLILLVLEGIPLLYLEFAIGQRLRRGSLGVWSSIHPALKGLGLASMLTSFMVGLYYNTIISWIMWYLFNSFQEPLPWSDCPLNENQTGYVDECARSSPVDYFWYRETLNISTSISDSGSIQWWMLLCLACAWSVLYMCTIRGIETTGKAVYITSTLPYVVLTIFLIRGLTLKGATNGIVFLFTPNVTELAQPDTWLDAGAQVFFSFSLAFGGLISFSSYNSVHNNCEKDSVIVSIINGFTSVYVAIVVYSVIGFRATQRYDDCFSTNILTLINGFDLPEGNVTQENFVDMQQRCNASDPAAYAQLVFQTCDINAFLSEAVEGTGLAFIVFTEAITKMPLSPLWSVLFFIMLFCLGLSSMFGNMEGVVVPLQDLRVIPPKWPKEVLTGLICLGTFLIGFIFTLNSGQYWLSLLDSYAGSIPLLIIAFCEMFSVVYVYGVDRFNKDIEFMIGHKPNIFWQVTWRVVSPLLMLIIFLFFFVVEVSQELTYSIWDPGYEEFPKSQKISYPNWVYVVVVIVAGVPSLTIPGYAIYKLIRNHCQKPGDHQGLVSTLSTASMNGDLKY
Sequence (Q9HBJ8 15-222 partner): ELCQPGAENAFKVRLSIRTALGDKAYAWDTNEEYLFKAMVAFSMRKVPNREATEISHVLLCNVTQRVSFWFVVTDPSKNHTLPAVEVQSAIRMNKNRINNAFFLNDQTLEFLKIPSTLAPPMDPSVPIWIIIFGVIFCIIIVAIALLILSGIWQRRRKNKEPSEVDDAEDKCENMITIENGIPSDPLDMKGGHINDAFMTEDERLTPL
assay details: Radiolabelled (3H) leucine uptake in CHO cells with doxycycline-inducible expression of human SLC6A19 and TMEM27 (Example B-1)
Assay type: cell-based
setup conditions: CHO cells with doxycycline-inducible expression of human SLC6A19 and TMEM27, read-out: SLC6A19_Radioligand Uptake Assay IC50
Listing of recorded IC50 by entry.
Numbers only here, please. The scale is nM.

These recorded examples may help you get a feel for the data.
{"columns": ["compound", "value reported"],
 "data": [
  ["Cc1cc(COc2cc3[nH]c(CNC(=O)N4CCC(F)C4)cc3cc2Cl)on1 (racemic)", 472],
  ["CC1(C(=O)NCc2cc3ccc(OCCc4cscn4)cc3[nH]2)CC1", 1680],
  ["Cc1cc(COc2cc3[nH]c(CNC(=O)C4(O)CC4)cc3cc2Cl)on1", 194]
]}

// recorded IC50 for CC(NC(=O)C1(C)CC1)c1cc2cc(Cl)c(OCc3cscn3)cc2[nH]1 (racemic) : 1050

// recorded IC50 for `O=C(NCc1cc2cc(F)c(OCc3ccon3)cc2[nH]1)C1CC1` : 148

// recorded IC50 for `CC1(C(=O)NCc2cc3cc(Cl)c(OCc4cn5ccccc5n4)cc3[nH]2)CC1` : 1470

// recorded IC50 for `CC1(C(=O)NCc2cc3cc(Cl)c(OCc4cncc(F)c4)cc3[nH]2)CC1` : 716

// recorded IC50 for `CC1(C(=O)NCc2cc3cc(Cl)c(OCc4ccc(Cl)s4)cc3[nH]2)CC1` : 1080
